Listing of recorded Fluorescence change after 2 hours of reaction at 30° C. by entry.
target: MMP14 in the MDA-MB-231-derived extracellular vesicles (Homo sapiens, UniProt P50281); construct: in terms of intact MMP14 with a molecular weight of 70 kDa; experiment: Evaluation of MMP14 activity of MDA-MB-231-derived extracellular vesicles with 96-well plate; format: biochemical; conditions: MP, 2.5 μM with 2.5 μM Custom #2TF3
No end group written: not given here. *: point of attachment. 5FAM = O=C1OC2(c3ccc(O)cc3Oc3cc(O)ccc32)c2ccc(C(=O)*)cc21; TQ2 = quencher

>>> print(df.to_string())
                                  substance                            assayed_target   meas_value
0  TQ2-YPPRPLLARK(5-FAM) (TQ2-YPPRPLLARK(5FAM)) [Custom #15]  MMP14 in the MDA-MB-231-derived extracellular vesicles (Homo sapiens, UniProt P50281)  10,890 ΔRFU
1  TQ2-WYPAGLRMVK(5-FAM) (TQ2-WYPAGLRMVK(5FAM)) [Custom #13]  MMP14 in the MDA-MB-231-derived extracellular vesicles (Homo sapiens, UniProt P50281)   9,939 ΔRFU

Requested read-out: Fluorescence change after 2 hours of reaction at 30° C.. Entry: TQ2-FMPLGLRGIK(5-FAM) (TQ2-FMPLGLRGIK(5FAM)) [Custom #12] 19,102 ΔRFU

Requested read-out: Fluorescence change after 2 hours of reaction at 30° C.. Entry: TQ2-DLPAGLQARK(5-FAM) (TQ2-DLPAGLQARK(5FAM)) [Custom #14] 14,104 ΔRFU

Requested read-out: Fluorescence change after 2 hours of reaction at 30° C.. Entry: TQ2-LAPLGLQRRK(5-FAM) (TQ2-LAPLGLQRRK(5FAM)) [Custom #11] 18,065 ΔRFU

Requested read-out: Fluorescence change after 2 hours of reaction at 30° C.. Entry: TQ2-WPHGSLQAAK(5-FAM) (TQ2-WPHGSLQAAK(5FAM)) [Custom #16] 1,489 ΔRFU
